Entries and their pIC50 values follow.
target: CDK2 (UniProt P24941); assay: Enzyme Assay
pIC50: −log10 of the molar value.

Example compounds with recorded pIC50:
structureNotation	subjectOfTest	obsValue
Cc1nc(-c2ccnc(Nc3ccc(Cl)nc3)n2)sc1C	CDK2 (UniProt P24941)	< 5.00
COc1ccc(Nc2nccc(-c3nccs3)n2)cn1	CDK2 (UniProt P24941)	< 4.30
CCOC(=O)c1sc(-c2ccnc(Nc3ccc(Cl)cc3)n2)nc1O	CDK2 (UniProt P24941)	< 6.00
Clc1ccc(Nc2nccc(-c3nccs3)n2)cn1	CDK2 (UniProt P24941)	4.96

Continue with the next compound.
I have this compound here, COc1ccc(Nc2nccc(-c3nc(C)c(C)s3)n2)cn1 , and I need its recorded pIC50.
< 6.00
